Reported TGI by item:
Tested on: LOX IMVI melanoma
Assay notes: NCI tumour cell line growth inhibition, 48 h
Measurement label: TGI

1) Cc1[nH]ncc1-c1cc2nc(C3CC4CCN3CC4)[nH]c(=O)c2s1 (stereo not drawn)
21.1 µM
2) C=CC(=O)Nc1ccc(Nc2nccc(-c3ccc(N4CCCC4)c(C#N)c3)n2)cc1
> 25 µM
3) O=c1[nH]c(=O)n(C2CC(O)C(CO)O2)cc1I (stereo not drawn)
> 100 µM
4) C=CCC1(O)c2ccccc2C(=O)c2c(O)ccc(O)c21 (stereo not drawn)
> 50.9 µM
5) CCCN(CCC)CCCNCc1cc(I)cc(C)c1O
27.7 µM
6) COC(=O)C(=O)C(C(=O)Nc1cccc(C)c1C)C1Sc2ccccc2NC1=O (stereo not drawn)
> 25 µM
7) O=C(c1ccccc1)c1ccc2c(c1)nc1n2C(c2c(Cl)cccc2Cl)SC1 (stereo not drawn)
> 100 µM
8) Cc1ccccc1NC(=S)Nc1ccccn1
> 100 µM
9) C(=Nc1ccccc1)C1CCCC[N-]1.C(=Nc1ccccc1)C1CCCC[N-]1.[Cu+2].[O-][Cl+3]([O-])([O-])O (stereo not drawn)
11.8 µM
10) COc1cc(/C(Cl)=C/C=C/C(=O)c2c(C)[n+]([O-])c3ccc(Cl)cc3[n+]2[O-])cc(OC)c1OC
7.54 µM
11) CCOc1ccccc1NC(=O)CCC(=O)OC
> 31.6 µM
12) C/C=C/[C@@]1(OC(=O)c2ccccc2)C[C@@H]2CCCC[C@@H]21
44.7 µM
13) N#C/C(=C\c1ccccc1O)C(N)=O
> 100 µM
14) CCOC(=O)c1ccc(N=NN(C)C(=O)C(C)N)cc1 (stereo not drawn)
> 100 µM
15) Cc1cc(C)nc(NC(N)=NCCc2ccccc2)n1
44.3 µM
16) N#Cc1cccc(N2C(=O)c3c(c(-c4ccccc4)c(-c4ccc(Sc5ccc(-c6c(-c7ccccc7)c7c(c(-c8ccccc8)c6-c6ccccc6)C(=O)N(c6cccc(C#N)c6)C7=O)cc5)cc4)c(-c4ccccc4)c3-c3ccccc3)C2=O)c1
> 100 µM
17) CC1=NN(c2nc(N)nc(-c3ccccc3S(N)(=O)=O)n2)C(C)(C)C1
> 100 µM
18) [O-]/[N+](=C\c1ccccc1)[C@H](COCc1ccccc1)c1ccccc1
> 100 µM
19) Clc1ccc(-c2ccc(-c3nnc(CCc4nnc(-c5ccc(-c6ccc(Cl)cc6)o5)o4)o3)o2)cc1
> 100 µM
20) O=c1cc(CNC2CCCC2)[nH]c(=O)[nH]1
> 100 µM
21) Cc1cccc(C(=O)c2cccc3ccccc23)c1C(=O)O
> 100 µM
22) O=C1C2CCCCC2C(=O)N1n1c(Cc2ccc(Cl)cc2)n[nH]c1=O (stereo not drawn)
> 100 µM
23) COc1cc2c(/C=N\N=C(N)N)c(Cl)[nH]c2cc1C
25.3 µM
24) CC1=CCC[C@@]2(C)C(CC[C@@H]2C(C)/C=C/C(C)C)c2ccc(cc2C(=O)O)C[C@@H](O)CC1 (stereo partly drawn)
19 µM
25) O=C1CSC2(CC(/C=C/c3ccccc3)=NN2c2cccc(S(=O)(=O)O)c2)N1c1nc2ccccc2s1 (stereo not drawn)
23.7 µM
26) COc1ccc(C#Cc2ccccc2C#CCCCCO)cc1
30.6 µM
27) CC(C)(C)OC(=O)CN1CCNCCNCC1
> 100 µM
28) C=CCNC(=S)Nc1sc2c(c1C(=O)OCC)CC(C)CC2 (stereo not drawn)
> 100 µM
29) COc1cccc2c1OC1c3ccccc3OCC1C2 (stereo not drawn)
> 100 µM
30) Cn1cc(-c2nonc2-c2c[nH]c3ccccc23)c2ccccc21
13 µM
31) O=C1C(N2CCCC2)=CC(=O)c2c(O)c(N3CCCC3)c(Cl)c(O)c21
> 10 µM
32) N#Cc1cc(C#N)c(Cl)nc1N
> 10 µM
33) O=C1Oc2ccccc2C(=O)/C1=C/N1C(=O)N/C(=C\c2ccccc2O)C1=O
> 100 µM
34) O=C1NC(N/N=C\C(O)C(O)C(O)CO)=N/C1=C/c1ccccc1 (stereo not drawn)
> 100 µM
35) Cc1c2cnccc2c(C)c2c1c1cc(C3OCCCO3)ccc1n2C
0.659 µM
36) c1ccc(SC2(Sc3ccccc3)CCCC2)cc1
> 100 µM
37) Nc1nc(N)c2ncn(CC3CCC(CO)C3)c2n1 (stereo not drawn)
> 100 µM
38) Cc1ccc(C)n1-c1ccccc1C1SCCCS1
> 100 µM
39) O=C(O)[C@H]1[C@@H](C2CCCCC2)O[C@@H](C2CCCCC2)O[C@H]1C(F)(F)F
36.5 µM
40) CC1=CC2CC(C)=C(CC[C@]3(C)CC[C@H]([C@@H](C)C(=O)O)OO3)C(C)(C)C2CC1 (stereo partly drawn)
0.207 µM
41) C[N+]1(C)CCCC1C(=O)[O-] (stereo not drawn)
> 100 µM
42) O=C1c2ccccc2C(=O)N1n1c(Cc2ccccc2)n[nH]c1=O
> 100 µM
43) CCN(CC)CCNC(=O)c1ccccc1NC(=O)C(=O)Nc1ccccc1C(=O)NCCN(CC)CC
73.6 µM
